Cited source: ChEMBL document CHEMBL1201862

Each record here notes measured GI50.
Test system: M14
assay.summary: NCI tumour cell line growth inhibition, 48 h
Calls of active or inactive are those of the source. Rule as the data show it: active = GI50 up to about 1.1 µM and inactive = higher.

Known results for compounds:
Looking up COc1cccc(-c2cc(O)c3cccnc3n2)c1 , I found its GI50 recorded as 0.0575 µM (active)

Looking up N#Cc1c(N)nc(Sc2ccccc2N)c(C#N)c1-c1ccccc1 , I found its GI50 recorded as 24.2 µM (inactive)

***
Looking up COc1cc2c(c(O)c1OC)-c1c(cc(OC)c(OC)c1OC)CC(C)C(C)C2 (stereo not given) , I found its GI50 recorded as 45.1 µM (inactive)

Looking up COc1cc(NC(C)=O)ccc1C(=O)N/N=C/c1ccco1 , I found its GI50 recorded as > 100 µM (inactive)

* * *

Test system: OVCAR-8
assay.summary: NCI tumour cell line growth inhibition, 48 h
Calls of active or inactive are those of the source. Cut-off read from the data, not from the text of the source: active = GI50 up to about 1.1 µM and inactive = higher.
Each record here notes measured GI50.

Known results for molecules:
Looking up NCCCC[C@H](N)C(=O)Nc1ccc(-c2nc3ccccc3s2)cc1Cl , I found its GI50 recorded as 7.71 µM (inactive)

Looking up CCCCC#COS(=O)(=O)c1ccc(C)cc1 , I found its GI50 recorded as > 100 µM (inactive)

Looking up CCCCCCCCCCOC(=O)c1cc[n+](C)cc1 , I found its GI50 recorded as 17.2 µM (inactive)

Looking up O=C(O)c1cc2cc(OCc3ccccc3)ccc2[nH]1 , I found its GI50 recorded as > 100 µM (inactive)

Next:
Looking up COc1ccc(C2=Nc3ccccc3SC(C)C2)cc1OC (stereo unspecified) , I found its GI50 recorded as 22.8 µM (inactive)

* * *

System: DU-145
assay.summary: NCI tumour cell line growth inhibition, 48 h
Activity calls are given as the source filed them. Rule as the data show it: active = GI50 up to about 1.1 µM and inactive = higher.
Permitted responses: 1 (yes) = active, 0 (no) = inactive

I would be grateful if you could indicate the recorded call for Cc1ccc(-n2cc(-c3ccc(Cl)cc3)c3c(=N)n(N)cnc32)cc1 .
0 (no)

I would be grateful if you could indicate the recorded call for c1ccc(Nc2nnc(-c3ccccc3Nc3ccccc3-c3nnc(Nc4ccccc4)s3)s2)cc1 .
0 (no)

I would be grateful if you could indicate the recorded call for NNC1=Nc2ccc(Cl)cc2C(=S)N2CSCC12 (configuration not stated) .
0 (no)

***
I would be grateful if you could indicate the recorded call for O=c1oc2c/c(=C\c3ccc([N+](=O)[O-])cc3)c(=O)c3cccc1c3-2 .
0 (no)

I would be grateful if you could indicate the recorded call for CCCCCCCCCCCCCCCCCCOP(=O)([O-])OC1CC[N+](C)(C)CC1 .
0 (no)

I would be grateful if you could indicate the recorded call for CC[N+](CC)(CC)/C(=N\S(=O)(=O)c1ccc(Cl)cc1)[N-]S(=O)(=O)c1cc(C)c(Cl)cc1S .
0 (no)

I would be grateful if you could indicate the recorded call for Cn1c(=O)cc(NNc2ccc(Cl)c(Cl)c2)[nH]c1=O .
0 (no)

I would be grateful if you could indicate the recorded call for O=c1c(/C=C/c2c(O)ccc3ccccc23)nnc2sc(-c3cccc(Br)c3)nn12 .
0 (no)

* * *

Tested on: HOP-62
assay.summary: NCI tumour cell line growth inhibition, 48 h
Activity calls are given as the source filed them. No stated cut-off is given here; in the data, active = GI50 up to about 1.1 µM and inactive = higher.
Permitted responses: true (1) for active, false (0) for inactive

I would be grateful if you could indicate the recorded call for C1=CC=C2NCCOCC/N=C3/C=CC=CC=C3NCCOCC/N=C\2C=C1 .
false (0)

I would be grateful if you could indicate the recorded call for CC1NOC(=O)C1/N=N/c1ccccc1Cl (stereo not drawn) .
false (0)

I would be grateful if you could indicate the recorded call for CCOC(=O)N1CCc2cc(OC)c(OC)cc2/C1=C\c1ccc(OC)c(OC)c1 .
false (0)

I would be grateful if you could indicate the recorded call for COc1cccc(-c2cc(O)c3cccnc3n2)c1 .
true (1)

I would be grateful if you could indicate the recorded call for CC1(C)[C@@H]2CC[C@]1(C)[C@H](OC(=O)CSC#N)C2 .
false (0)

***
I would be grateful if you could indicate the recorded call for CC(C)(C)OC(=O)NCC(=O)N(CCc1ccc(Cl)c(Cl)c1)CCN1CCCC1 .
false (0)
